# Test system: DAF-12 nuclear receptor (Heterodera glycines), GAL4-LBD fusion
# measurement protocol: H. glycines DAF-12 receptor agonists, confirmation, cell-based, luminescence, HEK293, GAL4-LBD fusion (AID 743050);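 also: 0% = DMSO low control and 100% = 2 mM sodium butyrate high control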
# condition summary: HEK293 GAL4-hgDAF12 luciferase reporter, agonist mode; at 6.8 µM; hits give high values; percent of butyrate response
The list shows a part of the results.
assay readout: activation (%)

structure_smiles_string=COc1cc(/C=N/O)ccc1OCc1ccc([N+](=O)[O-])cc1 measured=15.5
structure_smiles_string=Cc1cc(OCc2cc(C(=O)NCc3cc(C(C)C)no3)no2)cc(C)c1Cl measured=20.9
structure_smiles_string=Clc1ccc(Nc2ccc3ccccc3n2)cc1 measured=28.6
structure_smiles_string=O=C(NCCc1c[nH]c2ccccc12)c1cc2ccccc2oc1=O measured=13.4
structure_smiles_string=O=c1oc(/C=C/c2ccccc2)nc2ccccc12 measured=14.4
structure_smiles_string=c1ccc(Cc2c(-c3ccco3)nc3c4ccccc4ccn23)cc1 measured=16.6
structure_smiles_string=COC(=O)c1sc(NC(=O)c2ccc(OC)cc2OC)nc1C measured=7.02
structure_smiles_string=CNS(=O)(=O)c1ccc(NC(=O)Nc2ccc3c(c2)OCO3)cc1 measured=13.2
structure_smiles_string=CCc1ccc2oc(-c3ccc(N)cc3)nc2c1 measured=18.3
structure_smiles_string=Cc1cccc(N(CC(=O)Nc2ccc(-c3nc4ccc(C)cc4s3)cc2)S(C)(=O)=O)c1 measured=19.8
structure_smiles_string=C/C(=N\NC(=O)OC(C)(C)C)c1ccc[nH]1 measured=13.8

---

# Test system: transactivating tegument protein VP16 (Human herpesvirus 1), Gal4-VP16 luciferase reporter
# measurement protocol: VP16 transactivation inhibitors, counter-screen for SRC3 inhibitor project, cell-based, luminescence, high throughput (AID 588794)
# condition summary: mammalian cells, VP16-driven luciferase reporter luminescence; at 3.6 µM; hits give high values
Classification field: enter yes for inhibition values not below 50%, no for values below it.

compound=C=C(C(=O)c1ccccc1)C(C)C(=C)C(=O)c1ccccc1 label_class=no
compound=NNC(=O)c1cc2ccccc2cc1O label_class=no
compound="Cc1ccccc1OCc1n(CC(=O)OC2CC(C)CCC2C(C)C)c2ccccc2[n+]1C (configuration not stated)" label_class=no
compound=COc1ccc(-n2ncc3c(N4CCCCC4)ncnc32)cc1 label_class=no
compound=S=C(N/N=C/c1ccc2ncccc2c1)Nc1cccnc1 label_class=no
compound="CC1CCCC=CC2CC(OC(=O)CN(C)C)CC2C(O)C=CC(=O)O1 (configuration not stated)" label_class=yes
compound=COC(=O)c1cccc2c1-c1ccccc1/C2=N/O label_class=no
compound=CC(=O)Nc1ccc(Oc2sc(C(=O)c3ccccc3)c(N)c2C#N)cc1 label_class=no
compound="O=c1[nH]c(=O)n(C2C[C@H](O)[C@@H](CO)O2)cc1C(F)(F)F (some centres not stated)" label_class=no
compound="O=C(/C=C/c1ccccc1)CC(O)(c1ccccc1)C(F)(F)C(F)F (configuration not stated)" label_class=no
compound=Cc1nc([N+](=O)[O-])c(Sc2nc3ccccc3n2C)n1Cc1ccccc1 label_class=no
compound=CCC(NC(=O)Nc1nnc(C(F)(F)F)s1)(C(F)(F)F)C(F)(F)F label_class=yes
compound=CCN(CC)c1ccc(/C=N/NC(=O)c2nnn(-c3nonc3N)c2C(C)C)c(O)c1 label_class=yes
compound=CC(C)(C)NC(=O)CSc1nc2ccc(NC(=O)CSc3nnnn3Cc3ccccc3)cc2s1 label_class=no
compound=COc1cc(SC)ccc1C(=O)Nc1nc2ccccc2[nH]1 label_class=yes
compound=Cc1ccc(-c2c[n+]3c(n2-c2ccccc2)SCC3)cc1 label_class=no
compound=COc1ccc(CCNC(=O)COc2ccc(N(C)S(=O)(=O)c3ccc(Cl)cc3)cc2)cc1 label_class=no
compound=CCN(CC)c1ccc(/C=N/Nc2nc(C)cc(=O)[nH]2)c(O)c1 label_class=yes
compound=CCn1cc(C(=O)NCc2ccco2)c(=O)c2cc(S(=O)(=O)N3CCCCCC3)ccc21 label_class=no
compound=CCCC(=O)Nc1ccc(C(=O)N/N=C/c2ccc([N+](=O)[O-])o2)cc1 label_class=yes

---

# target desc: Steroidogenic factor 1 (Homo sapiens)
# measurement protocol: SF1 (NR5A1) inverse agonists, counter-screen for LRH-1 inverse agonist project, cell-based, luminescence, high throughput (AID 651614);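 also: cells cotransfected with StAR promoter reporter and SF1 expression vector; 0% = vehicle on cells with receptor and 100% = vehicle on cells lacking receptor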
# condition summary: cell-based SF1 luciferase reporter, at 3.6 µM, hits give high values
The source made the active and inactive calls. Cut-off read from the data, not from the text of the source: active = inhibition above about 44%; inactive = the rest. Numbered stars: 1 amine (or outer) side, 2 acyl side, 3 side chain; on linkers, the order of the positions; unused ones are H or OH. Bridge positions count the residues as written; N and C are the ends. Square brackets hold non-standard residues; d marks the D form. Peptide text beside a SMILES is read from it. ξ: configuration not given here. X1 = CC[C@H](CCC[C@@H](O)[C@@H](C)C(=O)O[C@H](C)[C@@H](C)C/C=C(C)/C(=C\C(=O)[*:1])OC)O[*:2]; NMeξIle = CC[C@H](C)C(NC)C(=O)O; NMeV = CN[C@H](C(=O)O)C(C)C; NMeS = CN[C@@H](CO)C(=O)O
assay readout: inhibition

molecule=Cc1ccc(NC(=O)CSc2ccc3c(c2)OCCO3)c(O)c1 assay_readout=inhibition measured="46.5% (active)"
molecule=CC(=O)N1CCN(c2cc(N3CCCC3)c(F)cc2[N+](=O)[O-])CC1 assay_readout=inhibition measured="48.7% (active)"
molecule="CC1Cc2cc(-c3csc(NC(=O)Cc4cccs4)n3)ccc2N1S(C)(=O)=O (stereo not drawn)" assay_readout=inhibition measured="62% (active)"
molecule=Nc1nc(-c2ccccc2)[nH]c(=O)c1N=O assay_readout=inhibition measured="49.4% (active)"
molecule=NC(=S)NN=C1c2cc(OCCN3CCOCC3)ccc2-c2ccc(OCCN3CCOCC3)cc21 assay_readout=inhibition measured="82.2% (active)"
molecule=COc1ccc2cc3cc(C(=O)Nc4cc(OC)c(OC)c(OC)c4)oc3nc2c1 assay_readout=inhibition measured="74.7% (active)"
molecule=CCCCOCCCNc1ncnc2c1[nH]c1ccccc12 assay_readout=inhibition measured="53.6% (active)"
molecule=COc1cc(CCNc2ccc3nnc(-c4ccccc4)n3n2)cc(OC)c1OC assay_readout=inhibition measured="28.6% (inactive)"
molecule=Cc1onc(-c2ccccc2Cl)c1C(=O)O/N=C(\N)c1ccc([N+](=O)[O-])o1 assay_readout=inhibition measured="62.5% (active)"
molecule=CCN(C(C)=O)c1cnc(C=NNC(N)=S)c2ccccc12 assay_readout=inhibition measured="69.5% (active)"
molecule=Cc1nc2c(-c3ccccc3)cnn2c(N)c1-c1ccccc1 assay_readout=inhibition measured="-43.9% (inactive)"
molecule=C/C(=N\N=C(N)N)c1cc(Cl)ccc1Cl assay_readout=inhibition measured="30.1% (inactive)"
molecule=O=C(Nc1ccccc1C(=O)NCCCn1ccnc1)c1ccccc1 assay_readout=inhibition measured="42.1% (inactive)"
molecule=Cc1ccc(-n2nc(C)c(NC(=O)CCl)c2C)cc1C assay_readout=inhibition measured="66.8% (active)"
molecule=COC(=O)c1cc(O)cc(OC)c1Oc1cc(C)cc(O)c1C(=O)O assay_readout=inhibition measured="66.9% (active)"
molecule=Clc1ccc(C2=Nn3c(nnc3-c3n[nH]c4c3CCC4)SC2)cc1 assay_readout=inhibition measured="66.8% (active)"
molecule=Cc1nc2ccc(NS(=O)(=O)c3ccc4c(c3)OCCO4)cc2s1 assay_readout=inhibition measured="57.4% (active)"
molecule=Cc1nc2ccccc2n1/N=C/c1ccc([N+](=O)[O-])s1 assay_readout=inhibition measured="71.4% (active)"
molecule=O=C(Cc1c(Cl)cccc1Cl)Nc1ccncc1 assay_readout=inhibition measured="45.4% (active)"
molecule=Cc1cc2ccccn2c1C(=O)c1cccc([N+](=O)[O-])c1 assay_readout=inhibition measured="42% (inactive)"
molecule=O=C(NNc1ccccc1)C(=O)NNS(=O)(=O)c1ccc([N+](=O)[O-])cc1 assay_readout=inhibition measured="27.1% (inactive)"
molecule=C/C(=N\Nc1cc(C(F)(F)F)ccc1Cl)c1ccncc1 assay_readout=inhibition measured="47.6% (active)"
molecule=COC(=O)c1ccc(CNC(=O)COC(=O)c2cc(Cl)nc(Cl)c2)cc1 assay_readout=inhibition measured="37.1% (inactive)"
molecule="CC1(C(=O)NCc2ccc(Cl)cc2)CCN1C(=O)Cc1ccc(Cl)cc1Cl (stereo not drawn)" assay_readout=inhibition measured="46.5% (active)"
molecule="O=C(N/N=C\\c1ccc([N+](=O)[O-])o1)C1COc2ccccc2O1 (stereo not drawn)" assay_readout=inhibition measured="49.8% (active)"
molecule=CN(C)c1ccc(NC(=O)CSc2nnc(-c3ccco3)c(-c3ccco3)n2)cc1 assay_readout=inhibition measured="47.8% (active)"
molecule=O=C(N/N=C/c1ccc[nH]1)c1ccc(COc2cccc3cccnc23)cc1 assay_readout=inhibition measured="96.3% (active)"
molecule=COc1ccc(/C=N/n2c(SC)nnc2-c2ccccc2)c(OC)c1OC assay_readout=inhibition measured="54.4% (active)"
molecule="Cc1c(C)c2ccc(OCC(=O)N3CCN(C(=O)C4COc5ccccc5O4)CC3)cc2oc1=O (stereo not drawn)" assay_readout=inhibition measured="59.1% (active)"
molecule="COc1cccc(N2CCN(c3ncnc4c3[nH]c3ccc(F)cc34)CC2C)c1 (stereo not drawn)" assay_readout=inhibition measured="97.8% (active)"
molecule=CC(=O)CSc1nc(N)c(C#N)c(-c2cccs2)c1C#N assay_readout=inhibition measured="62.7% (active)"
molecule="COc1cc(C2c3cc4c(cc3OC(Nc3ccc(C(=O)O)cc3)C2C)OCO4)cc(OC)c1OC (stereo not drawn)" assay_readout=inhibition measured="60.9% (active)"
molecule=C/C(=N\Nc1nc2ccccc2[nH]1)c1ccccn1 assay_readout=inhibition measured="73.9% (active)"
molecule="CN(C(=O)c1cccc(NC(=O)Cc2ccc(NC(=O)C3CCCN(C(=O)CCc4ccccc4)C3)cc2)c1)C1CCCCC1 (stereo not drawn)" assay_readout=inhibition measured="48.5% (active)"
molecule=COc1cc(C(=O)/C=C/c2cccnc2)c([N+](=O)[O-])cc1OC assay_readout=inhibition measured="56.7% (active)"
molecule=CC1(C)CC(=O)C=C(c2ccc3c(c2)OCO3)C1 assay_readout=inhibition measured="42.1% (inactive)"
molecule=c1cc(CNc2ccc3c(c2)OCCO3)ccn1 assay_readout=inhibition measured="14.8% (inactive)"
molecule=Cc1cc(C(=O)Nc2ccc(Cl)cc2)c(C)n1-c1ccccc1 assay_readout=inhibition measured="71.7% (active)"
molecule=O=[N+]([O-])c1ccc(N2CCCCC2)nc1N1CCCCC1 assay_readout=inhibition measured="51.2% (active)"
molecule="CC[C@@H]1CCC[C@@H](O)[C@@H](C)C(=O)O[C@H](C)[C@@H](C)C/C=C(C)/C(OC)=C\\C(=O)N(C)C([C@@H](C)CC)C(=O)N(C)[C@@H](C(C)C)C(=O)N(C)[C@@H](COC)C(=O)N2CCC[C@H]2C(=O)N(C)[C@@H](C(C)C)C(=O)N2CCC[C@H]2C(=O)O1 (stereo partly drawn) ([NMeξIle][NMeV][NMeS](Me)P[NMeV]P; linker N-C via X1)" assay_readout=inhibition measured="94.8% (active)"
molecule=Cc1cccc(C(=O)Nc2sc3c(c2C(=O)O)CCCC3)c1 assay_readout=inhibition measured="82.3% (active)"
molecule="CC1CC(C)C(=O)C(C(CC2CC(=O)NC(=O)C2)OC(=O)CC(=O)c2ccccc2)C1 (stereo not drawn)" assay_readout=inhibition measured="96.9% (active)"
molecule=C/C(=N\NC(N)=S)c1ccc(-n2ccnc2)cc1 assay_readout=inhibition measured="53.4% (active)"
